Target: cGAS (Homo sapiens, UniProt Q8N884)
Sequence (Q8N884 whole entry): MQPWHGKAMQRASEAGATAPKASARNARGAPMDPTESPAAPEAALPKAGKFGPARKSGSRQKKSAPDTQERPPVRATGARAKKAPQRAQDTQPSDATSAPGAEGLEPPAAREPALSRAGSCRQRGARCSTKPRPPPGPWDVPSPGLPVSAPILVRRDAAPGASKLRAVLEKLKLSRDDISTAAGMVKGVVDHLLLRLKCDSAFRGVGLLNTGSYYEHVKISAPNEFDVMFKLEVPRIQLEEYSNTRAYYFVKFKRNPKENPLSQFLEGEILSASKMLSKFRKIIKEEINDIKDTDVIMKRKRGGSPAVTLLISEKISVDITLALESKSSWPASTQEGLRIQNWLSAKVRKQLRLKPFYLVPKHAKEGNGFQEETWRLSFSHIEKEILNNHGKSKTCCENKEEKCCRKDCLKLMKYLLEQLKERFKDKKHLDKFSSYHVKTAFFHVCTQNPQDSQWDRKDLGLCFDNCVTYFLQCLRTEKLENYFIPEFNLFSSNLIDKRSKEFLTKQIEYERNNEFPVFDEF
Assay: In vitro inhibition assay of cGAS activity (cGAMP production, RapidFire mass spectrometry)
Assay type: biochemical
Design: Insert cDNA encoding full-length of human cGAS; His6; made in house; host or cells: E. coli BL21(DE3)
Details: 10 nM recombinant human cGAS, 60 nM 75-bp dsDNA, 50 μM ATP, 50 μM GTP, 3 hrs
pIC50: −log10 of the molar value.
Measured pIC50 accompanies every entry in the list below.

molecule	pIC50
C[C@@H]1CNC(=O)[C@@H](C)c2c1[nH]c1c(Cl)c(Cl)cc(NC(=O)CO)c21 (single isomer, unassigned) [Example 160]	7.89
C[C@H]1C(=O)NCC(C)(C)c2c1c1c(NC(=O)CO)cc(Cl)c(Cl)c1n2C (single isomer, unassigned) [Example 135]	4.69
Cn1c2c(c3c(OCC#N)cc(Cl)c(Cl)c31)CC(=O)NCC2CCO (stereo not shown)	7.49
C[C@@H]1C(=O)NCCc2c1c1c(NC(=O)CO)cc(Cl)c(Cl)c1n2C (single isomer, unassigned) [Example 92]	7.76
COCCOc1cc(Cl)c(Cl)c2[nH]c3c(c12)[C@H](C)C(=O)NCC3 (single isomer, unassigned) [Example 81]	5.92
Cn1ncc(-c2cc(Cl)c(F)c3[nH]c4c(c23)CC(=O)NCC4)n1	7.48
COCCNc1cc(Cl)c(Cl)c2c1c1c(n2C)CCNC(=O)C1C (stereo not shown)	7.73
CC1C(=O)NCCc2[nH]c3c(Cl)c(Cl)cc(NC(=O)C4CCO4)c3c21 (stereo not shown)	7.41
CC(O)CC1CNC(=O)Cc2c1[nH]c1c(Cl)c(Cl)cc(CC#N)c21 (stereo not shown)	7.92
CC1C(=O)NCCc2[nH]c3c(Cl)c(Cl)cc(OC4COC4)c3c21 (stereo not shown)	7.39
CC1C(=O)NCCc2[nH]c3c(Cl)c(Cl)cc(NCCO)c3c21 (single isomer, unassigned) [Example 50]	8.02
Cn1c2c(c3c(CC#N)cc(Cl)c(Cl)c31)CC(=O)NC[C@H]2CC(C)(C)O (single isomer, unassigned) [Example 129]	5.81
C[C@@H]1CNC(=O)[C@@H](C)c2c1[nH]c1c(Cl)c(Cl)cc(NCCO)c21 (single isomer, unassigned) [Example 157]	5.18
C[C@H](O)COc1cc(Cl)c(Cl)c2[nH]c3c(c12)[C@H](C)C(=O)NCC3 (single isomer, unassigned) [Example 84]	7.35
C[C@H]1C(=O)NCCc2c1c1c(NC(=O)CO)cc(Cl)c(Cl)c1n2C(F)F (single isomer, unassigned)	7.91
C[C@@H]1C(=O)NC[C@H](C)c2[nH]c3c(Cl)c(Cl)cc(CC#N)c3c21 (single isomer, unassigned) [Example 151]	7.71
CC1C(=O)NCCc2[nH]c3c(Cl)c(Cl)cc(CC#N)c3c21 (stereo not shown)	7.40
CC[C@H]1C(=O)NCCc2[nH]c3c(Cl)c(Cl)cc(OCC#N)c3c21 (single isomer, unassigned) [Example 35]	7.36
CC1C(=O)NCCc2[nH]c3c(Cl)c(Cl)cc(NCCO)c3c21 (racemic) [Example 49]	7.82

###

Target: cGAS (Homo sapiens, UniProt Q8N884)
Assay: Cellular assay to measure cGAS activity (IFNb AlphaLISA in THP1 cells stimulated by RDG-Adenovirus-GFP)
Assay type: cell-based
Design: host or cells: THP1 cells differentiated with PMA and stimulated with RDG-Adenovirus-GFP
Conditions: PMA-differentiated THP1 cells, RDG-Adenovirus-GFP at 1000 MOI; inhibition of IFNb production as marker for cGAS activity
Measured IC50 accompanies every entry in the list below.

molecule	result_unit	relation_qualifier	IC50
O=C1Cc2c([nH]c3c(Cl)c(Cl)cc(-c4nnc[nH]4)c23)CCN1 [Example 29]	µM	>	10
CC1C(=O)NCCc2[nH]c3c(Cl)c(Cl)cc(OCC(F)F)c3c21 (racemic) [Example 76]	µM	=	1.47
C[C@@H]1C(=O)NCCc2[nH]c3c(Cl)c(Cl)cc(OCC#N)c3c21 (single isomer, unassigned) [Example 16A]	µM	=	0.871
C[C@@H]1C(=O)NC[C@H](C)c2[nH]c3c(Cl)c(Cl)cc(CC#N)c3c21 (single isomer, unassigned) [Example 151]	µM	=	1.77
C[C@@H]1C(=O)NCCc2[nH]c3c(Cl)c(Cl)cc(OCC(F)(F)CO)c3c21 (single isomer, unassigned) [Example 74]	µM	>	10

The reported measurements were obtained from patent US20240246979A1.
